# change of melting temperature, mutant - wild type (higher = more stable) listing for each entry below
B1: Subtilisin-chymotrypsin inhibitor-2A, P01053 (parent)
chain: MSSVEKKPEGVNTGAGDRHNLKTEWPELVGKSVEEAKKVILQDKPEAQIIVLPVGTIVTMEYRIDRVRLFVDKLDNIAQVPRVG

- Variants of: B1
- assayContext: Hordeum vulgare; pH 3.5; Thermal; DSC; MES 450 mM; reversible: yes; structure 2CI2; whole UniProt chain shown
Report as a plain number; the unit °C is understood.

Answered cases to consult:
sequencerecord=MSSVEKKPEGVNTGAGDRHNLKTEWPELVGKSVEEAKKVVLQDKPEAQIIVLPVGTIVTMEYRIDRVRLFVDKLDNIAQVPRVG measuredresult=-6.5
sequencerecord=MSSVEKKPEGVNTGAGDRHNLKTEWPELVGKSVEEAKKVILQDKPEAQAIVLPVGTIVTMEYRIDRVRLFVDKLDNIAQVPRVG measuredresult=-21.3
sequencerecord=MSSVEKKPEGVNTGAGDRHNLKTEWPELVGKSVEEAKKVILQDKPEAQIIVLPVGTIVTMEYRIDRVRAFVDKLDNIAQVPRVG measuredresult=-21.5

Now, please, on to the next variant.
Query block: Provide one value: measured change of melting temperature, mutant - wild type (higher = more stable) of MSSVEKKPEGVNTGAGDRHNLKTEWPELVGKSVEEAKKVILQDKPEAQIIVLPVGTIVTMEYRIDRARLFVDKLDNIAQVPRVG
Result block: -28.5

Sourced from FireProtDB (doi:10.1021/bi00093a001)
